Data origin, for the record: patent US6545032B1

Target: kappa opiate receptor (Cavia porcellus)
Construct: guinea pig cortices and cerebella were homogenized in 40 mL of Buffer A; from tissue; host or cells: guinea pig cortices and cerebella, crude membrane suspension
Sequence (P41144 whole entry): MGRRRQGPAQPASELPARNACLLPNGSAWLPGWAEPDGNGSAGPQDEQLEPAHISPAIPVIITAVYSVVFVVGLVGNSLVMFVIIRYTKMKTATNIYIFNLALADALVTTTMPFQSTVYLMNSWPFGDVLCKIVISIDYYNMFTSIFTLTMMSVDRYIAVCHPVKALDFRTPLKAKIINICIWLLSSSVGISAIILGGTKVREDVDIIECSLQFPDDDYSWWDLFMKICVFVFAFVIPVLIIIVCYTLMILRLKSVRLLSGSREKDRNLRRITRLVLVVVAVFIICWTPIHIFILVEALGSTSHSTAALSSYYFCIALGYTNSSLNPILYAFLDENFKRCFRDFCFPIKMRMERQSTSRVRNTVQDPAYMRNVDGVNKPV
Assay: Inhibition of tritiated U69,593 binding to the kappa opiate receptor in guinea pig brain homogenates
Details: mean minus non-specific binding; 3 nm tritiated U69,593, guinea pig brain membranes
quantityMeasured: Minus NSB
Please respond with just the number, no unit label.

**Query** Recall the recorded Minus NSB for CCCCc1nc(C)n2c1NC(=O)C2C(C)C (racemic) [Pool 60] with kappa opiate receptor (Cavia porcellus) and state it.
**Result** 848.40

**Query** Moving on to CC(C)c1nc(CCC2CCCC2)n2c1NC(=O)C2C(C)C (centres unmarked)
**Result** 715.75

**Query** Moving on to Cc1nc(C(C)C)c2n1C(C(C)C)C(=O)N2 (centres unmarked) [Pool 19]
**Result** 876.25

**Query** Moving on to CC(C)c1nc(CC(C)c2ccccc2)n2c1NC(=O)C2C(C)C (mixture of isomers)
**Result** 695.75

**Query** Moving on to Cc1nc(C)n2c1NC(=O)C2C(C)C (centres unmarked) [Pool 51]
**Result** 738.80

**Query** Moving on to Cc1nc(C(C)C)c2n1C(CC1CCCCC1)C(=O)N2 (centres unmarked)
**Result** 914.55

**Query** Moving on to CC(C)c1nc(C(C)(C)C)n2c1NC(=O)C2C(C)C (centres unmarked)
**Result** 716.60

**Query** Moving on to Cc1nc(C)n2c1NC(=O)C2C(C)C (centres unmarked) [Pool 35]
**Result** 804.90

**Query** Moving on to CC(C)Cc1nc(C(C)C)c2n1C(C(C)C)C(=O)N2 (centres unmarked)
**Result** 646.30

**Query** Moving on to CC(C)c1nc(CC2CC3CCC2C3)n2c1NC(=O)C2C(C)C (centres unmarked)
**Result** 715.25

**Query** Moving on to Cc1nc(C(C)C)c2n1C(C(C)C)C(=O)N2 (centres unmarked) [Pool 36]
**Result** 880.35

**Query** Moving on to Cc1nc(CCCNC(=N)N)c2n1C(C(C)C)C(=O)N2 (centres unmarked)
**Result** 499.35

**Query** Moving on to CC(C)c1nc(Cc2ccc(Br)cc2)n2c1NC(=O)C2C(C)C (racemic)
**Result** 763.10

**Query** Moving on to CC(C)c1nc(C2CCCC2)n2c1NC(=O)C2C(C)C (centres unmarked)
**Result** 637.15

**Query** Moving on to Cc1nc(CCCCN)c2n1C(C(C)C)C(=O)N2 (centres unmarked)
**Result** 537.20

**Query** Moving on to CC(C)c1nc(Cc2ccc(-c3ccccc3)cc2)n2c1NC(=O)C2C(C)C (racemic)
**Result** 721.30

**Query** Moving on to COc1ccc(Cc2nc(C(C)C)c3n2C(C(C)C)C(=O)N3)cc1 (racemic)
**Result** 905.05

**Query** Moving on to Cc1nc(Cc2ccccc2)c2n1C(C(C)C)C(=O)N2 (racemic) [Pool 63]
**Result** 879.70

**Query** Moving on to CCCc1nc(C(C)C)c2n1C(C(C)C)C(=O)N2 (racemic)
**Result** 626.45

**Query** Moving on to CC(C)c1nc(Cc2ccc(Cl)c(Cl)c2)n2c1NC(=O)C2C(C)C (racemic)
**Result** 924.35
